- Tested on: NRG-mice bearing LNCaP tumors
- experimental.details: Biodistribution (and PET/SPECT imaging) in NRG-mice bearing LNCaP tumors
- Type: in vivo
- measurement.context: 72 h p.i., Avg
*1 amine or outer side, *2 acyl side, *3 side chain or, on linkers, in order; H or OH if unused. Where a SMILES comes first, the peptide text is derived from it. [ ]: non-standard residue; d: D form. The star is where a group is joined. ξ: configuration not given here. ξLys(Nα-CO-ξAad) = O=C(O)CCCC(NC(=O)NC(CCCCN*)C(=O)O)C(=O)O; Butanoyl(4-(4-NO2Ph)) = O=C(CCCc1ccc([N+](=O)[O-])cc1)*; DOTA = O=C(O)CN1CCN(CC(=O)O)CCN(CC(=O)*)CCN(CC(=O)O)CC1; Butanoyl(4-(4-MeO-phenyl)) = COc1ccc(CCCC(=O)*)cc1; ξAla(9-anthryl) = NC(Cc1c2ccccc2cc2ccccc12)C(=O)O; X2 = O=C(NC(CCCCN*)C(=O)O)NC(CC(F)C(=O)O)C(=O)O; X1 = O=C(C1CCC(CN[*:1])CC1)[*:2]; ξK = NCCCCC(N)C(=O)O
observable: Biodistribution: Pancreas (% ID/g)

[
  {
    "compound": "COc1ccc(CCCC(=O)NCC(=O)NC(CCCCNC(=O)CN2CCN(CC(=O)[O-])CCN(CC(=O)[O-])CCN(CC(=O)[O-])CC2)CC(=O)NCC2CCC(C(=O)NC(Cc3c4ccccc4cc4ccccc34)C(=O)NCCCCC(NC(=O)NC(CC(F)C(=O)O)C(=O)O)C(=O)O)CC2)cc1.[177Lu+3] (stereo not drawn) [^177Lu-CCZ02019]",
    "observable": "Biodistribution: Pancreas",
    "observed.measurement": 0.09
  },
  {
    "compound": "O=C([O-])CN1CCN(CC(=O)[O-])CCN(CC(=O)NCCCCC(NC(=O)CNC(=O)CCCc2ccc([N+](=O)[O-])cc2)C(=O)NCC(=O)NCC2CCC(C(=O)NC(Cc3c4ccccc4cc4ccccc34)C(=O)NCCCCC(NC(=O)NC(CCCC(=O)O)C(=O)O)C(=O)O)CC2)CCN(CC(=O)[O-])CC1.[225Ac+3] (stereo not drawn) [^225Ac-CCZ02017] ({Butanoyl(4-(4-NO2Ph))}-G[ξK](DOTA)G[X1][ξAla(9-anthryl)]-{ξLys(Nα-CO-ξAad)})",
    "observable": "Biodistribution: Pancreas",
    "observed.measurement": 0.09
  },
  {
    "compound": "COc1ccc(CCCC(=O)NCC(=O)NC(CCCCNC(=O)CN2CCN(CC(=O)[O-])CCN(CC(=O)[O-])CCN(CC(=O)[O-])CC2)C(=O)NCC(=O)NCC2CCC(C(=O)NC(Cc3c4ccccc4cc4ccccc34)C(=O)NCCCCC(NC(=O)NC(CC(F)C(=O)O)C(=O)O)C(=O)O)CC2)cc1.[177Lu+3] (stereo not drawn) [^177Lu-CCZ02008] ({Butanoyl(4-(4-MeO-phenyl))}-G[ξK](DOTA)G[X1][ξAla(9-anthryl)]-X2)",
    "observable": "Biodistribution: Pancreas",
    "observed.measurement": 0.17
  }
]

###

- System: NRG-mice bearing LNCaP tumors
- experimental.details: Biodistribution (and PET/SPECT imaging) in NRG-mice bearing LNCaP tumors
- Type: in vivo
- measurement.context: 3 h p.i., Avg
*1 amine or outer side, *2 acyl side, *3 side chain or, on linkers, in order; H or OH if unused. Where a SMILES comes first, the peptide text is derived from it. [ ]: non-standard residue; d: D form. The star is where a group is joined. ξ: configuration not given here. ξLys(Nα-CO-ξAad) = O=C(O)CCCC(NC(=O)NC(CCCCN*)C(=O)O)C(=O)O; Butanoyl(4-(4-NO2Ph)) = O=C(CCCc1ccc([N+](=O)[O-])cc1)*; DOTA = O=C(O)CN1CCN(CC(=O)O)CCN(CC(=O)*)CCN(CC(=O)O)CC1; Butanoyl(4-(4-MeO-phenyl)) = COc1ccc(CCCC(=O)*)cc1; ξAla(9-anthryl) = NC(Cc1c2ccccc2cc2ccccc12)C(=O)O; X2 = O=C(NC(CCCCN*)C(=O)O)NC(CC(F)C(=O)O)C(=O)O; X1 = O=C(C1CCC(CN[*:1])CC1)[*:2]; ξK = NCCCCC(N)C(=O)O
Examples of compounds with documented Biodistribution: Thyroid follow.
observable: Biodistribution: Thyroid (% ID/g)

[
  {
    "compound": "COc1ccc(CCCC(=O)NCC(=O)NC(CCCCNC(=O)CN2CCN(CC(=O)[O-])CCN(CC(=O)[O-])CCN(CC(=O)[O-])CC2)CC(=O)NCC2CCC(C(=O)NC(Cc3c4ccccc4cc4ccccc34)C(=O)NCCCCC(NC(=O)NC(CC(F)C(=O)O)C(=O)O)C(=O)O)CC2)cc1.[177Lu+3] (stereo not shown) [^177Lu-CCZ02019]",
    "tested.on": "NRG-mice bearing LNCaP tumors",
    "observed.measurement": 2.44
  },
  {
    "compound": "COc1ccc(CCCC(=O)NCC(=O)NC(CCCCNC(=O)CN2CCN(CC(=O)[O-])CCN(CC(=O)[O-])CCN(CC(=O)[O-])CC2)C(=O)NCC(=O)NCC2CCC(C(=O)NC(Cc3c4ccccc4cc4ccccc34)C(=O)NCCCCC(NC(=O)NC(CCCC(=O)O)C(=O)O)C(=O)O)CC2)cc1.[68Ga+3] (stereo not shown) [^68Ga-CCZ02009] ({Butanoyl(4-(4-MeO-phenyl))}-G[ξK](DOTA)G[X1][ξAla(9-anthryl)]-{ξLys(Nα-CO-ξAad)})",
    "tested.on": "NRG-mice bearing LNCaP tumors",
    "observed.measurement": 3.59
  },
  {
    "compound": "O=C([O-])CN1CCN(CC(=O)[O-])CCN(CC(=O)NCCCCC(NC(=O)CNC(=O)CCCc2ccc([N+](=O)[O-])cc2)C(=O)NCC(=O)NCC2CCC(C(=O)NC(Cc3c4ccccc4cc4ccccc34)C(=O)NCCCCC(NC(=O)NC(CCCC(=O)O)C(=O)O)C(=O)O)CC2)CCN(CC(=O)[O-])CC1.[177Lu+3] (stereo not shown) [^177Lu-CCZ02017] ({Butanoyl(4-(4-NO2Ph))}-G[ξK](DOTA)G[X1][ξAla(9-anthryl)]-{ξLys(Nα-CO-ξAad)})",
    "tested.on": "NRG-mice bearing LNCaP tumors",
    "observed.measurement": 2.87
  },
  {
    "compound": "O=C([O-])CN1CCN(CC(=O)[O-])CCN(CC(=O)NCCCCC(NC(=O)CNC(=O)CCCc2ccc([N+](=O)[O-])cc2)C(=O)NCC(=O)NCC2CCC(C(=O)NC(Cc3c4ccccc4cc4ccccc34)C(=O)NCCCCC(NC(=O)NC(CC(F)C(=O)O)C(=O)O)C(=O)O)CC2)CCN(CC(=O)[O-])CC1.[68Ga+3] (stereo not shown) [^68Ga-CCZ02025] ({Butanoyl(4-(4-NO2Ph))}-G[ξK](DOTA)G[X1][ξAla(9-anthryl)]-X2)",
    "tested.on": "NRG-mice bearing LNCaP tumors",
    "observed.measurement": 2.41
  }
]

###

- System: NRG-mice bearing LNCaP tumors
- experimental.details: Biodistribution (and PET/SPECT imaging) in NRG-mice bearing LNCaP tumors
- Type: in vivo
- measurement.context: 3 h p.i., Avg
*1 amine or outer side, *2 acyl side, *3 side chain or, on linkers, in order; H or OH if unused. Where a SMILES comes first, the peptide text is derived from it. [ ]: non-standard residue; d: D form. The star is where a group is joined. ξ: configuration not given here. Butanoyl(4-(4-NO2Ph)) = O=C(CCCc1ccc([N+](=O)[O-])cc1)*; DOTA = O=C(O)CN1CCN(CC(=O)O)CCN(CC(=O)*)CCN(CC(=O)O)CC1; ξAla(9-anthryl) = NC(Cc1c2ccccc2cc2ccccc12)C(=O)O; X2 = O=C(NC(CCCCN*)C(=O)O)NC(CC(F)C(=O)O)C(=O)O; X1 = O=C(C1CCC(CN[*:1])CC1)[*:2]; ξK = NCCCCC(N)C(=O)O
observable: Biodistribution: Seminal gland (% ID/g)

[
  {
    "compound": "O=C([O-])CN1CCN(CC(=O)[O-])CCN(CC(=O)NCCCCC(NC(=O)CNC(=O)CCCc2ccc([N+](=O)[O-])cc2)C(=O)NCC(=O)NCC2CCC(C(=O)NC(Cc3c4ccccc4cc4ccccc34)C(=O)NCCCCC(NC(=O)NC(CC(F)C(=O)O)C(=O)O)C(=O)O)CC2)CCN(CC(=O)[O-])CC1.[68Ga+3] (stereo not shown) [^68Ga-CCZ02025] ({Butanoyl(4-(4-NO2Ph))}-G[ξK](DOTA)G[X1][ξAla(9-anthryl)]-X2)",
    "observable": "Biodistribution: Seminal gland",
    "observed.measurement": 1.83
  }
]
